Values from patent US10251892B2

Target or test system: FGFR3 enzyme (Homo sapiens (Human), UniProt P22607)
Sequence (P22607 23-806): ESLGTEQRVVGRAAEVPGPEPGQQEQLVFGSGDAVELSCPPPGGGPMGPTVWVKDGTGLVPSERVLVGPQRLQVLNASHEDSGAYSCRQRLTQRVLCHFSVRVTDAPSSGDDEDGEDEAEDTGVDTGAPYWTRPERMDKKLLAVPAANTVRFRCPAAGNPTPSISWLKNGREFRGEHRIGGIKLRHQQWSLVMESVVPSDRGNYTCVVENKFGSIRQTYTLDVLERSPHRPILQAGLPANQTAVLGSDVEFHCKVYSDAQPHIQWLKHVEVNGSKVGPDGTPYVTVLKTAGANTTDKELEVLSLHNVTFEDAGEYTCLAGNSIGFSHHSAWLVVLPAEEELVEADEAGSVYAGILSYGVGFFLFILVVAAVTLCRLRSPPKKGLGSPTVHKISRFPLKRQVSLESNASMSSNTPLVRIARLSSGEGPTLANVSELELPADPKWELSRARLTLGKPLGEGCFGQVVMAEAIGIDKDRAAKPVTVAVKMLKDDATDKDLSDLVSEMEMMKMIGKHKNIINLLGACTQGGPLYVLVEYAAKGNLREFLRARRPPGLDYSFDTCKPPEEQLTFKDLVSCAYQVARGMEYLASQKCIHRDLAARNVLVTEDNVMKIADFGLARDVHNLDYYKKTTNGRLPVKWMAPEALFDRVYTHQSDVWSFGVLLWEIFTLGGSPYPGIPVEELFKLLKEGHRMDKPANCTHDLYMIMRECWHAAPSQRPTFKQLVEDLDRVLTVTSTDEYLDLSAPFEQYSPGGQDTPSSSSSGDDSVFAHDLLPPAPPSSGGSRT
Method notes: FGFR Enzymatic Assay (peptide phosphorylation, FRET), FGFR3
Assay type: biochemical
Experimental conditions: IC50 ratio showing FGFR3 selectivity; pre-incubated for 4 hours
Measured metric: FGFR1/FGFR3

Example cases with answers are listed next.
COc1cc(OC)c(F)c(N2Cc3cnc(-c4cncc(CN5CCOCC5)c4)cc3C3(CC3)C2=O)c1F [Example 16]	>1
COc1cc(OC)c(F)c(N2Cc3cnc(-c4cn(C5CCS(=O)(=O)C5)nc4C)cc3C3(CC3)C2=O)c1F (stereo not shown) [Example 54]	>5
COc1cc(OC)c(F)c(N2Cc3cnc(-c4cncc(Cl)c4)cc3C3(CC3)C2=O)c1F [Example 11]	>1

Next item in the queue.
Consider COc1cc(OC)c(F)c(N2Cc3cnc(-c4cn(C)nc4C)cc3N(Cc3ccc(F)cc3)C2=O)c1F [Example 34] . Its measured FGFR1/FGFR3 is >5
